Each entry below carries its recorded growth.
System: NCI-H322M lung
Experimental protocol: NCI-60 one-dose screen, 48 h (100 = growth as untreated, 0 = no growth, -100 = all killed)
Experimental context: 10 µM unless noted
About 83,000 compounds went through this panel and 20% of them were active in at least one assay; those are over-represented in the sample as a whole.
Numbers only here, please. The scale is %.

Example entries begin here.
O=c1ccccc(-c2ccc(Br)cc2)c1O; 21.1
CC(C)CSc1nc(N)nc2c1ncn2C1OC(CO)C(O)C1O (stereo not drawn); 101

State its growth: COc1ccc(Nc2cc(C)nc(N3CCN(c4ccnc5cc(Cl)ccc45)CC3)n2)cc1
26.9
